- test_summary: Measurement of LogP values by HPLC on reversed phase columns (EEC directive 79/831 Annex V.A8)
- Format: physicochemical
- conditions: method [a]: LC-UV, acidic range, 0.1% formic acid in water and acetonitrile as eluent; Table 1
# cutoff 2 applies to chromatographic logP; >= gives Met, < gives Not met

Threshold query (chromatographic logP >= 2) on OC(Cc1ccccc1F)(Cn1cncc1Br)C1(Cl)CC1 (stereo not shown)
Met

Please tell me: is the compound OC(Cc1ccccc1Cl)(Cn1cncc1F)C1(Cl)CC1 (stereo not shown) at or over 2 in terms of chromatographic logP?
Not met

Hi team, for N#CCc1cncn1CC(O)(Cc1ccccc1Cl)C1(Cl)CC1 (stereo not shown) , is the recorded chromatographic logP at or above 2?
Not met

chromatographic logP >= 2 for OC(Cn1cncc1Cl)(C(F)c1ccccc1Cl)C1(Cl)CC1 (stereo not shown) ?
Met

In plain terms: is recorded chromatographic logP at least 2 for Cc1ccc(CC(O)(Cn2cncc2Cl)C2(Cl)CC2)c(C)c1 (stereo not shown) ?
Met

Check this compound for chromatographic logP at or above 2: N#Cc1cncn1CC(O)(Cc1ccccc1I)C1(Cl)CC1 (stereo not shown)
Met

Please indicate if the recorded chromatographic logP for N#Cc1cncn1CC(O)(Cc1ccccc1F)CC1CC1 (stereo not shown) meets or exceeds 2.
Met

Form field: chromatographic logP at least 2? Entry: Cc1ccc(CC(O)(Cn2cncc2C#N)C2(Cl)CC2)c(F)c1 (stereo not shown)
Met

Kindly determine if chromatographic logP recorded for N#Cc1cncn1CC(O)(Cc1cccc(F)c1F)C1(F)CC1 (stereo not shown) is above or exactly 2.
Met

----------
- System: Venturia inaequalis
- test_summary: In vivo preventive Venturia test (apples), Example J
- conditions: 240 h, read-out: efficacy
Can you tell me pest or weed control at 100 ppm for the items I'm about to list?

What pest or weed control at 100 ppm appears in the records for this compound with Venturia inaequalis? OC(Cc1cc(Cl)ncc1Cl)(Cn1cncc1Cl)C1(Cl)CC1 (stereo not shown)
90 to 100%

Notebook: pull reported pest or weed control at 100 ppm for Venturia inaequalis, entry C#Cc1cncn1CC(O)(Cc1ccccc1F)C1(Cl)CC1 (stereo not shown)
90 to 100%

Form field - read-out: pest or weed control at 100 ppm; system: Venturia inaequalis; submitted item: OC(Cc1ccccc1F)(Cn1cncc1Br)C1(Cl)CC1 (stereo not shown)
90 to 100%

Recall the recorded pest or weed control at 100 ppm for N#Cc1cncn1CC(O)(Cc1ccc(F)c(Cl)c1F)C1(Cl)CC1 (stereo not shown) with Venturia inaequalis and state it.
80 to 89%

# get_value(readout= pest or weed control at 100 ppm, system= Venturia inaequalis) for N#Cc1cncn1CC(O)(Cc1ccnc(Cl)c1Cl)C1(Cl)CC1 (stereo not shown)
80 to 89%

Record lookup: for Venturia inaequalis, what pest or weed control at 100 ppm belongs to N#Cc1cncn1CC(O)(Cc1ccccc1Br)C1(Cl)CC1 (stereo not shown) ?
80 to 89%

Value wanted: pest or weed control at 100 ppm (Venturia inaequalis) of entry N#Cc1cncn1CC(O)(Cc1cccc(F)c1F)C1(Cl)CC1 (stereo not shown)
90 to 100%

----------
- test_summary: Measurement of LogP values by HPLC on reversed phase columns (EEC directive 79/831 Annex V.A8)
- Format: physicochemical
- conditions: method [a]: LC-UV, acidic range, 0.1% formic acid in water and acetonitrile as eluent; Table 1
experimental_endpoint: chromatographic logP
// print number alone

Recorded chromatographic logP for C=CCOC(Cc1ccc(Cl)cc1F)(Cn1cncc1Cl)C1(Cl)CC1 (stereo not shown) [Example I-123] , please?
3.31

I would be grateful if you could share the reported chromatographic logP for N#Cc1cncn1CC(O)(Cc1cccc(F)c1F)C1(Cl)CC1 (stereo not shown) [Example I-146] .
2.75

Given N#Cc1cncn1CC(O)(Cc1ccc(F)c(F)c1F)C1CCC1 (stereo not shown) [Example I-104] , state its recorded chromatographic logP.
2.78

# input molecule: CC(C)C(O)(Cc1cccc(F)c1F)Cn1cncc1C#N (stereo not shown) [Example I-149] ; wanted: its chromatographic logP
2.47

Tell me the measured chromatographic logP of CCOC(Cc1ccc(Cl)cc1F)(Cn1cncc1Cl)C1(Cl)CC1 (stereo not shown) [Example I-122] , please.
3.1

What value of measured chromatographic logP is listed for N#Cc1cncn1CC(O)(Cc1ccc(F)cc1Cl)C1(Cl)CC1 (stereo not shown) [Example I-154] ?
3

May I ask what chromatographic logP has been recorded for N#Cc1cncn1CC(O)(Cc1ccc(F)cc1)C1CCCC1 (stereo not shown) [Example I-161] ?
2.82

----------
- test_summary: Measurement of LogP values by HPLC on reversed phase columns (EEC directive 79/831 Annex V.A8)
- Type: physicochemical
- conditions: method [a]: LC-UV, acidic range, 0.1% formic acid in water and acetonitrile as eluent; Table 1
experimental_endpoint: chromatographic logP
Reply briefly: the number, and no unit.

What measured chromatographic logP goes with N#Cc1cncn1CC(O)(Cc1ccccc1C(F)(F)F)C1(Cl)CC1 (stereo not drawn) ?
3.15

Consider the compound shown here: N#Cc1cncn1CC(O)(Cc1ccc(Cl)cc1)C1(Cl)CC1 (stereo not drawn) What is its recorded chromatographic logP?
3.1

Can you look up the measured chromatographic logP of CC(C)(C)CC(O)(Cc1ccc(Cl)cc1)Cn1cncc1C#N (stereo not drawn) for me?
3.37

Looking for the measured chromatographic logP of N#Cc1cncn1CC(O)(Cc1cc(Cl)ncc1Cl)C1(Cl)CC1 (stereo not drawn) , can you help?
2.62

Recorded chromatographic logP for N#Cc1cncn1CC(O)(Cc1cc(Br)ncc1Br)C1(Cl)CC1 (stereo not drawn) , please?
2.73

Find the recorded chromatographic logP belonging to COc1cncn1CC(O)(Cc1ccccc1F)C1(Cl)CC1 (stereo not drawn) and report it.
1.67

If you can, please state the reported chromatographic logP value of OC(Cc1ccccc1Cl)(Cn1cncc1Br)C1(Cl)CC1 (stereo not drawn) .
2.27

Item N#Cc1cncn1CC(O)(Cc1ccc(F)c(F)c1F)CC1CC1 (stereo not drawn) has what recorded chromatographic logP?
2.73

Reported chromatographic logP, compound CC(C)(C)C(O)(Cc1ccccc1F)Cn1cncc1C#N (stereo not drawn) : ____
2.73

----------
- test_summary: Measurement of LogP values by HPLC on reversed phase columns (EEC directive 79/831 Annex V.A8)
- Type: physicochemical
- conditions: method [a]: LC-UV, acidic range, 0.1% formic acid in water and acetonitrile as eluent; Table 1
experimental_endpoint: chromatographic logP
Lab note: write the figure by itself, no unit.

So what's the measured chromatographic logP for this one? N#Cc1cncn1CC(O)(Cc1cccnc1Cl)C1(Cl)CC1 (stereo not drawn) [Example I-26]
2.01

Which chromatographic logP is listed for CC(C)C(O)(Cc1ccc(F)cc1F)Cn1cncc1C#N (stereo not drawn) [Example I-128] ?
2.52

Consider the molecule Cc1cncn1CC(O)(Cc1ccccc1Cl)C1(Cl)CC1 (stereo not drawn) [Example I-03] and give its measured chromatographic logP.
1.72

Endpoint output: chromatographic logP of Cc1cncn1CC(O)(C(F)c1ccccc1Cl)C1(Cl)CC1 (stereo not drawn) [Example I-13] . Value?
1.75

What measured chromatographic logP goes with OC(Cc1ccc(Cl)cc1F)(Cn1cncc1Br)C1(Cl)CC1 (stereo not drawn) [Example I-30] ?
2.55

Entry under review: N#Cc1cncn1CC(O)(Cc1ccc(-c2ccccc2)cc1)C1(Cl)CC1 (stereo not drawn) [Example I-63] . Reported chromatographic logP?
3.68

----------
- System: Pyricularia oryzae
- test_summary: whole plant or invertebrate
- Assay type: in vivo
- conditions: 192 h, read-out: efficacy
experimental_endpoint: pest or weed control at 500 ppm

Any idea what its pest or weed control at 500 ppm is? The molecule is OC(Cc1ccccc1Cl)(Cn1cncc1F)C1(Cl)CC1 (centres unmarked)
90 to 100%

Which value of pest or weed control at 500 ppm has been reported for OC(Cc1cc(F)ncc1Cl)(Cn1cncc1Cl)C1(Cl)CC1 (centres unmarked) in the records?
90 to 100%

Look up pest or weed control at 500 ppm for this molecule: C#Cc1cncn1CC(O)(Cc1ccccc1F)C1(Cl)CC1 (centres unmarked)
90 to 100%

Fill in the blank: the reported pest or weed control at 500 ppm of N#Cc1cncn1CC(O)(Cc1cccc(Cl)c1Cl)C1(Cl)CC1 (centres unmarked) is ____.
80 to 89%

Param item = N#Cc1cncn1CC(O)(Cc1cc(F)ncc1Cl)C1(Cl)CC1 (centres unmarked) ; retrieve measured pest or weed control at 500 ppm.
90 to 100%

Can you share its pest or weed control at 500 ppm? I mean this molecule: OC(Cc1cccc(F)c1F)(Cn1cncc1Cl)C1(Cl)CC1 (centres unmarked)
80 to 89%

What does the record list as pest or weed control at 500 ppm for OC(Cc1ccc(F)cc1F)(Cn1cncc1Cl)C1(Cl)CC1 (centres unmarked) ?
90 to 100%

Report pest or weed control at 500 ppm for OC(Cc1cc(Cl)ncc1Cl)(Cn1cncc1Cl)C1(Cl)CC1 (centres unmarked) please.
90 to 100%
